Listed molecules paired with reported TGI
- Test system: OVCAR-5 ovarian
- ASSAY: NCI tumour cell line growth inhibition, 48 h
PROPERTY NAME: TGI

O=C(NNCC(F)(F)F)c1ccncc1 : > 100 µM
O=S1(=O)NC2CCC3NS(=O)(=O)NC4CCC(N1)N4S(=O)(=O)N23 (stereo not given) : > 100 µM
C[C@H](NC(=O)n1c2ccccc2c2ccccc21)C(=O)O : > 100 µM
CCCCc1ccc(-n2sc3ncc([N+](=O)[O-])cc3c2=O)cc1 : 40.6 µM
CCN(CC)CCOc1ccc(/C=C2\C[C@H]3[C@H]4CC=C5C[C@@H](O)CC[C@]5(C)[C@H]4CC[C@]3(C)[C@H]2O)cc1OC : 18.6 µM
COc1cc2oc(-c3ccc(O)cc3O)c(CC=C(C)C)c(=O)c2c(O)c1/C=C/C(C)C : 18.7 µM
O=C(Nc1ccc(Sc2ccc(N=Nc3c(O)c(S(=O)(=O)O)cc4cc(S(=O)(=O)O)ccc34)cc2)cc1)c1ccc(N=Nc2c(O)ccc3c(S(=O)(=O)O)cc(S(=O)(=O)O)cc23)cc1 : > 100 µM
O=C(O)CC1NC(/C(=C/c2ccccc2O)NC(=O)c2ccccc2)OC1=O (stereo not given) : > 100 µM
C=C1C(=O)O[C@@H]2[C@H]1CCC(C)=C1C=CC(=O)[C@]12C : 31.8 µM
CCCC[n+]1c(/C=C\c2c(OC)cc(OC)cc2OC)ccc2ccccc21 : 10.3 µM
Cc1cc(C)n2c(-c3ccccc3)c(C)cc2n1 : > 100 µM
COC(=O)N/N=C(\C(=O)Nc1cccc([N+](=O)[O-])c1)c1nc2ccc([N+](=O)[O-])cc2[nH]c1=O : > 100 µM
CN1C[C@H]2[C@@H](C1=O)[C@H](c1ccccc1)ON2C : > 100 µM
Cc1ccc(Nc2[nH]c(=O)[nH]c(=O)c2C)cc1Cl : > 100 µM
CCCCCc1cc[n+](CC(=O)c2ccc([N+](=O)[O-])cc2)cc1 : 97.9 µM
CN1C(=O)C(C(N)=O)C2CC1(C)Oc1ccccc12 (stereo not given) : > 100 µM
COC(=O)c1c2c(cc3c1CC1(C3)Cc3cc4c(c(C(C)=O)c3C1)CCC4)C=CC2 (stereo not given) : > 31.6 µM
CC(=O)c1ccc(Nc2nc(Nc3ccc(F)cc3)nc(Nc3ccc(F)cc3)n2)cc1 : > 100 µM
O=C(Nc1nc(C23CC4CC(CC(C4)C2)C3)cs1)c1cc2cc(Cl)ccc2oc1=O : > 100 µM
CCC12CCCNC1c1c(n(C)c3ccccc13)C(C(=O)OC)C2 (stereo not given) : 208 µM

###

Listed molecules paired with reported TGI
- Test system: U251 CNS
- ASSAY: NCI tumour cell line growth inhibition, 48 h
PROPERTY NAME: TGI

COc1cccc2c3ccccc3c3nc[nH]c3c12 : > 100 µM
Nc1nc2c(nnn2C2OC(CO)C(O)C2O)c(=O)[nH]1 (stereo unspecified) : > 100 µM
CCOC(=O)C(=[N+]=[N-])C(=O)CN1C(=O)C2CC(C)=C(C)CC2C1O (stereo unspecified) : > 100 µM
CC(C)(CCN=C(N)Nc1ccccn1)c1ccc(C(F)(F)F)cc1 : 30.4 µM
C=C1CCC2C3(C)COC(c4c(OC)cccc4OC)OC3CCC2(C)C1C/C=C1/C(=O)OCC1O (stereo unspecified) : 4.36 µM
c1cc2nnc1SCCCSc1ccc(nn1)SCCCSc1ccc(nn1)SCCCS2 : > 100 µM
C=CCc1cc(C=C(C#N)C#N)cc(OC)c1O : > 100 µM
COc1cc(CNC2=NCCC2)cc(OC)c1OC : > 100 µM
Cc1cc2oc(-c3ccccc3)c(C)c(=O)c2c2c1OC(C)(C)S2 : > 100 µM
CCC12CCCNC1c1c(n(C)c3ccccc13)C(C(=O)OC)C2 (stereo unspecified) : > 275 µM
COC(=O)[C@@]1(Cc2ccc(O)cc2)C[C@@H]2Cc3ccccc3N2N1 : > 100 µM
NC(=O)c1ncn(CCN2CCN(C(=O)NCCCCCCNC(=O)N3CCN(CCn4cnc(C(N)=O)c4N)CC3)CC2)c1N : > 100 µM
CCCCCCCCCCC/C=C\C[C@H](O)C/C=C1/C(=O)C=C[C@@H]1C/C=C\CCCC(=O)OC : 1.53 µM
Cc1cc(=O)[nH]c2cc(NC(=O)C(CCCN=C(N)N)NC(=O)OCc3ccccc3)ccc12 (stereo unspecified) : > 100 µM
CCOC(=O)C1=C(C)N(Cc2ccccc2)C(=O)C1CC#N (stereo unspecified) : > 100 µM
COc1cc2cc(C(=O)N3CC(CCl)c4c3cc(NCCN)c3ccccc43)[nH]c2c(OC)c1OC (stereo unspecified) : < 0.01 µM
CCOC(=O)c1ccc2c(c1)nc(/C=C/c1ccc(Cl)cc1)n2-c1cc(C(C)(C)C)[nH]n1 : 13.2 µM
O=C(Nc1ccc(Sc2ccc(N=Nc3c(O)c(S(=O)(=O)O)cc4cc(S(=O)(=O)O)ccc34)cc2)cc1)c1ccc(N=Nc2c(O)ccc3c(S(=O)(=O)O)cc(S(=O)(=O)O)cc23)cc1 : > 100 µM
O=C(O)C1CCC(=O)N1S(=O)(=O)c1ccccc1 (stereo unspecified) : > 100 µM
COc1cccc(C2ON=C(c3ccccc3)N2C23CC4CC(CC(C4)C2)C3)c1 (stereo unspecified) : > 10 µM
c1cnc2c(c1)-n1cccc1C1(CCSC1)NN2 (stereo unspecified) : > 100 µM
